Please go through the items and note down their half-life.
# experiment-notes: Pharmacokinetic (PK) analysis in rats
# Format: in vivo, Sprague Dawley (SD) rats
# assay-context: Sprague-Dawley, rat, plasma, po; SD rats, single intragastric administration, 5 mg/kg; read-out: Half-Time t1/2 (converted)
One number for each entry, in min.

molecule="CO[C@H]1CCC1Oc1cc(NC(=O)N2CCCc3cc(CN4CCOCC4=O)c(C=O)nc32)ncc1C#N (stereo partly shown)" parameter_measured=half-life meas_value=51
molecule="CO[C@@H]1CCCC1Oc1cc(NC(=O)N2CCCc3cc(CN4CCOCC4=O)c(C=O)nc32)ncc1C#N (stereo partly shown)" parameter_measured=half-life meas_value=61.2

For each of the molecules below, state half-life.
1. CO[C@@H]1CCCC1Nc1cc(NC(=O)N2CCCc3cc(CN4CCOCC4=O)c(C=O)nc32)ncc1C#N (stereo partly shown)
2. COC1CCN(c2cc(NC(=O)N3CCCc4cc(CN5CCOCC5=O)c(C=O)nc43)ncc2C#N)C1 (stereo not shown)

66
36.6

The reported numbers originate from patent US11667631B2.
